# Tested on: Escherichia coli
# study_conditions: 10 washes; Orlon treated with 1 mMol/L compound, pH 3; 10^5~10^6 CFU/mL; contact time 6 hrs
endpoint_name: Antimicrobial efficacy of treated fabric, E. coli (%)
// note: answer is a bare numeric in %

For orientation, consider the following solved cases.
CCCCCCCC[N+](C)(C)CC(=O)Nc1ccc(NC(=O)C[N+](C)(C)CCCCCCCC)c2c1C(=O)c1ccccc1C2=O.[Cl-].[Cl-]: 46.7
CCCCCCCC[N+](C)(C)CC(=O)Nc1cccc2c1C(=O)c1ccccc1C2=O.[Cl-]: 0
CCCCCCCCCCCC[N+](C)(C)CC(=O)Nc1ccc(NC(=O)C[N+](C)(C)CCCCCCCCCCCC)c2c1C(=O)c1ccccc1C2=O.[Cl-].[Cl-]: 60.0
CCCC[N+](C)(C)CC(=O)Nc1ccc(NC(=O)C[N+](C)(C)CCCC)c2c1C(=O)c1ccccc1C2=O.[Cl-].[Cl-]: 0
CCCC[N+](C)(C)CC(=O)Nc1cccc2c1C(=O)c1ccccc1C2=O.[Cl-]: 0

Okay, now this compound:
Input: Would you mind telling me what Antimicrobial efficacy of treated fabric, E. coli value was observed for CCCCCCCCCCCC[N+](C)(C)CC(=O)Nc1cccc2c1C(=O)c1ccccc1C2=O.[Cl-] ?
Output: 0
